Test: qHTS of pediatric cancer cell lines to identify multiple opportunities for drug repurposing: Primary screen for SK-N-MC cells (AID 1347093); note: potency is the fitted concentration of half-maximal effect
Conditions: SK-N-MC viability, CellTiter-Glo luminescence, 48 h; series mostly up to 46 µM
Records with an inconclusive call do not appear. Activity calls are given as the source filed them. Calls come from the whole dose curve; as a rule, active = well fitted cell-killing curve with a large enough effect; inconclusive = small, poorly fitted or top-dose-only effect; inactive = no such curve, though single readings can be large or run the other way. Positions of bridges follow the written chain, without caps; N, C: chain ends. Non-standard residues stand in square brackets, D forms with d. Residues, ends and D or L forms follow the SMILES beside them. ξ: configuration not given here. *: point of attachment. Octanoyl(6-Me) = CCC(C)CCCCC(=O)*; ξThr(3R) = C[C@@H](O)C(N)C(=O)O; dDab = NCC[C@@H](N)C(=O)O; Dab = NCC[C@H](N)C(=O)O
test readout: Potency

The following compounds have reported results that may help.
compound	result
C=C1C(=CC=C2CCC[C@]3(C)[C@@H]([C@H](C)CCCC(C)(C)O)CC[C@@H]23)C[C@@H](O)C[C@@H]1O	1.48 µM (active)
O=C1NCCc2[nH]c(-c3ccncc3)cc21	4.18 µM (active)
C[C@@H]1[C@H](C)CC[C@]2(C(=O)O)CC[C@]3(C)C(=CC[C@@H]4[C@@]5(C)C[C@@H](O)[C@H](O)[C@@](C)(CO)[C@H]5CC[C@]43C)[C@@H]12	inactive
CNC(=O)c1ccc(Nc2cc(Nc3ccccc3S(=O)(=O)C(C)C)c3cc[nH]c3n2)nc1	0.743 µM (active)
CCC(C)CCCCC(=O)N[C@@H](CCN)C(=O)NC(C(=O)N[C@H](CCN)C(=O)N[C@@H]1CCNC(=O)C([C@@H](C)O)NC(=O)[C@@H](CCN)NC(=O)[C@@H](CCN)NC(=O)[C@@H](CC(C)C)NC(=O)[C@H](Cc2ccccc2)NC(=O)[C@H](CCN)NC1=O)[C@@H](C)O (stereo partly drawn) ({Octanoyl(6-Me)}-[Dab][ξThr(3R)][dDab][dDab][Dab]F[dL][dDab][dDab][ξThr(3R)]; lactam 4-C)	inactive

Shift focus to the following entry.
In: Using the record for O=C(Nc1cccc(Nc2ncc(Br)c(NCCc3cnc[nH]3)n2)c1)N1CCCC1 , report its Potency.
Out: 0.332 µM (active)
